assay: Neuroprotective activity against glutamate-induced neuronal cell death in Sprague-Dawley rat CGN cells assessed as cell viability at 10 uM preincubated for 24 hrs followed by glutamate challenge measured after 24 hrs by MTT assay (reference value: 40.4%); format: functional; conditions: read-out: Activity
READOUT_TYPE: viability at 10 µM (%)

* CCOC(=O)c1cc2c(cc1OC)[C@@]1(C)CC[C@H](O)C(C)(C)[C@@H]1CC2 | 73.1
* COC(=O)c1cc2c(cc1OC)[C@@]1(C)CC[C@H](O)C(C)(C)[C@@H]1CC2 | 72.4
* COc1cc2c(cc1CO)CC[C@H]1C(C)(C)[C@@H](O)CC[C@]21C | 64.4
* CCNC(=O)c1cc2c(cc1OC)[C@@]1(C)CC[C@H](O)C(C)(C)[C@@H]1CC2 | 78.2
* COc1cc2c(cc1C(C)=O)CC[C@H]1C(C)(C)[C@@H](OC(=O)C(F)(F)F)CC[C@]21C | 81
* COc1cc2c(cc1C(=O)N(C)C)CC[C@H]1C(C)(C)[C@@H](O)CC[C@]21C | 70.7
* COc1cc2c(cc1C(C)=O)CC[C@H]1C(C)(C)[C@@H](OC(C)=O)CC[C@]21C | 80.4
* COc1cc2c(cc1C(=O)NCC(=O)O)CC[C@H]1C(C)(C)[C@@H](O)CC[C@]21C | 57.1
* COc1cc2c(cc1C(=O)N1CCCCC1)CC[C@H]1C(C)(C)[C@@H](O)CC[C@]21C | 79.1
* CCCCOC(=O)c1cc2c(cc1OC)[C@@]1(C)CC[C@H](O)C(C)(C)[C@@H]1CC2 | 71
* COc1cc2c(cc1C(C)=O)CC[C@H]1C(C)(C)C(=O)CC[C@]21C | 69.7
* C#CCNC(=O)c1cc2c(cc1OC)[C@@]1(C)CC[C@H](O)C(C)(C)[C@@H]1CC2 | 81.7
* CNC(=O)c1cc2c(cc1OC)[C@@]1(C)CC[C@H](O)C(C)(C)[C@@H]1CC2 | 77.3
* CCCCCCCC(=O)c1cc2c(cc1OC)[C@@]1(C)CC[C@H](O)C(C)(C)[C@@H]1CC2 | 40.5
* COc1cc2c(cc1C(=O)O)CC[C@H]1C(C)(C)[C@@H](O)CC[C@]21C | 54
* CCCCNC(=O)c1cc2c(cc1OC)[C@@]1(C)CC[C@H](O)C(C)(C)[C@@H]1CC2 | 94.1
* CCC(=O)c1cc2c(cc1OC)[C@@]1(C)CC[C@H](O)C(C)(C)[C@@H]1CC2 | 63.2
* CC(=O)c1cc2c(cc1O)[C@@]1(C)CC[C@H](O)C(C)(C)[C@@H]1CC2 | 77.1

====

test: Neuroprotective activity against glutamate-induced neuronal cell death in Sprague-Dawley rat CGN cells at 10 uM preincubated for 24 hrs followed by glutamate challenge measured after 24 hrs relative to control; assay type: functional
READOUT_TYPE: Activity (%)

- COc1cc2c(cc1C(=O)O)CC[C@H]1C(C)(C)[C@@H](O)CC[C@]21C: 22.8
- CCNC(=O)c1cc2c(cc1OC)[C@@]1(C)CC[C@H](O)C(C)(C)[C@@H]1CC2: 63.4
- COc1cc2c(cc1C(C)=O)CC[C@H]1C(C)(C)[C@@H](OC(=O)C(F)(F)F)CC[C@]21C: 68.1
- COc1cc2c(cc1CO)CC[C@H]1C(C)(C)[C@@H](O)CC[C@]21C: 40.3
- CCCCOC(=O)c1cc2c(cc1OC)[C@@]1(C)CC[C@H](O)C(C)(C)[C@@H]1CC2: 51.3
- COc1cc2c(cc1C(C)=O)CC[C@H]1C(C)(C)[C@@H](OC(C)=O)CC[C@]21C: 67.1
- C#CCNC(=O)c1cc2c(cc1OC)[C@@]1(C)CC[C@H](O)C(C)(C)[C@@H]1CC2: 69.3
- COC(=O)c1cc2c(cc1OC)[C@@]1(C)CC[C@H](O)C(C)(C)[C@@H]1CC2: 53.7
- COCCC(=O)c1cc2c(cc1OC)[C@@]1(C)CC[C@H](O)C(C)(C)[C@@H]1CC2: 52.2
- CCOC(=O)c1cc2c(cc1OC)[C@@]1(C)CC[C@H](O)C(C)(C)[C@@H]1CC2: 54.9
- COc1cc2c(cc1C(=O)NCC(=O)O)CC[C@H]1C(C)(C)[C@@H](O)CC[C@]21C: 28
- COc1cc2c(cc1C(=O)N(C)C)CC[C@H]1C(C)(C)[C@@H](O)CC[C@]21C: 50.8
- CCC(=O)c1cc2c(cc1OC)[C@@]1(C)CC[C@H](O)C(C)(C)[C@@H]1CC2: 38.3
- CNC(=O)c1cc2c(cc1OC)[C@@]1(C)CC[C@H](O)C(C)(C)[C@@H]1CC2: 61.9
- COc1cc2c(cc1C(C)=O)CC[C@H]1C(C)(C)[C@@H](O)CC[C@]21C: 75.2
- CCCCNC(=O)c1cc2c(cc1OC)[C@@]1(C)CC[C@H](O)C(C)(C)[C@@H]1CC2: 90.1
- COc1cc2c(cc1C(=O)N1CCCCC1)CC[C@H]1C(C)(C)[C@@H](O)CC[C@]21C: 64.9
- COc1cc2c(cc1C(C)=O)CC[C@H]1C(C)(C)C(=O)CC[C@]21C: 49.2
- CC(=O)c1cc2c(cc1O)[C@@]1(C)CC[C@H](O)C(C)(C)[C@@H]1CC2: 61.6
